# testMethodNotes: qHTS profiling of the MIPE4 collection as inhibitors of Plasmodium falciparum (3D7) proliferation (AID 743344);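 also: scaled between DMSO vehicle wells and 0.29 µM artemisinin as full inhibition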
# testParameters: P. falciparum 3D7 in erythrocytes, SYBR Green DNA fluorescence, 72 h; at 28.5 µM unless noted
property: parasite growth, % of DMSO control (%)

COc1ccc2c(c1)c(C1=C(c3c[nH]c4ccccc34)C(=O)NC1=O)cn2CCCN(C)C: 5.52
O=C(CCCN1CCN(c2ccc(F)cc2)CC1)NC1c2ccccc2CSc2ccccc21 (centres undefined): 76
COC(=O)[C@H](c1ccccc1Cl)N1CCc2sccc2C1: 43.8
CNc1nc(-c2ccc3c(N)n[nH]c3c2)cc(N2C[C@@H](C(=O)NC3CCCCC3)CC[C@@H]2C)n1: 5.06
Cc1cccc2c1CC[C@H](CN1CCC(c3c(Cl)cccc3Cl)CC1)C[C@@H]2O: 8.94
Nc1ncnc2c1c(-c1cccc(OCc3ccccc3)c1)cn2C1CC(CN2CCC2)C1 (centres undefined): 31.5
CC[C@H](C)n1cc(C)c2c(C(=O)NCc3c(C)cc(C)[nH]c3=O)cc(-c3ccc(N4CCNCC4)nc3)cc21: 4.84
Cc1cnc(-c2cc(N3CCN(C(=O)CCS(C)(=O)=O)CC3)ncc2Cl)c(C)c1: 58.6

* * *

# testMethodNotes: Quantitative High-Throughput drug screen in 47 multiple myeloma cell lines against the NCATS MIPE library collection: U266_ATCC cell viability assay (AID 1919864); also: nearly all actives have a fitted effect of over 35% in size
# testParameters: U266 myeloma viability, CellTiter-Glo ATP luminescence, 48 h; series mostly up to 45.8 µM
Results filed as inconclusive are left out. Active and inactive are the calls of the source. The call rests on the fitted dose curve; in most records, active means well fitted cell-killing curve with a large enough effect; inconclusive means small, poorly fitted or top-dose-only effect, or effect the other way; inactive means no such curve, though single readings can be large or run the other way.
Labels: yes (1) for active, no (0) for inactive

CCC=CC[C@H]1C(=O)CC[C@@H]1CC(=O)OC: no (0)
Nc1ncnc2c1c(-c1cccc(OCc3ccccc3)c1)cn2C1CC(CN2CCC2)C1 (stereo not drawn): yes (1)
CC(C)(F)C[C@H](N[C@@H](c1ccc(-c2ccc(S(C)(=O)=O)cc2)cc1)C(F)(F)F)C(=O)NC1(C#N)CC1: no (0)
Cc1cccc(-c2[nH]c(C(C)(C)C)nc2-c2ccc3c(c2)OCO3)n1: yes (1)
O=C(Nc1ncc(SCCN2CCCC2)s1)[C@]1(c2ccc(S(=O)(=O)C3CC3)cc2)C[C@@H]1C1CCCCC1: yes (1)
CCN1CCC(n2cc(CNc3cc(Cl)c4ncc(C#N)c(Nc5ccc(F)c(Cl)c5)c4c3)nn2)CC1: yes (1)
CC1(C)CC(=O)c2c(C(F)(F)F)nn(-c3ccc(C(N)=O)c(NC4CCC(O)CC4)c3)c2C1 (stereo not drawn): yes (1)
CC(C)(O)CC(=O)NCCn1ccc2ncnc(Nc3ccc(Oc4cccc(C(F)(F)F)c4)c(Cl)c3)c21: yes (1)

* * *

# testMethodNotes: qHTS of pediatric cancer cell lines to identify multiple opportunities for drug repurposing: Primary screen for Rh41 cells (AID 1347108); also: nearly all actives have a fitted effect of over 70% in size
# testParameters: Rh41 rhabdomyosarcoma viability, CellTiter-Glo luminescence, 48 h; series mostly up to 46 µM
Records with an inconclusive call do not appear. The source made the active and inactive calls. Calls come from the whole dose curve; as a rule, active = well fitted cell-killing curve with a large enough effect; inconclusive = small, poorly fitted or top-dose-only effect; inactive = no such curve, though single readings can be large or run the other way.
Labels: Y for active, N for inactive

OC[C@H]1O[C@@H](Oc2ccc(O)cc2)[C@H](O)[C@@H](O)[C@H]1O: N
Cc1cnc(-c2cc(N3CCN(C(=O)CCS(C)(=O)=O)CC3)ncc2Cl)c(C)c1: N
COc1nccc(-c2c(-c3ccc(F)cc3)ncn2C2CCC(O)CC2)n1 (stereo not given): N
CC[C@H](C)n1cc(C)c2c(C(=O)NCc3c(C)cc(C)[nH]c3=O)cc(-c3ccc(N4CCNCC4)nc3)cc21: Y
Nc1ccc(-c2ccc3ncc4ccc(=O)n(-c5cccc(C(F)(F)F)c5)c4c3c2)cn1: Y
CCN1CCC(n2cc(CNc3cc(Cl)c4ncc(C#N)c(Nc5ccc(F)c(Cl)c5)c4c3)nn2)CC1: Y
OC(c1cc(C(F)(F)F)nc2c(C(F)(F)F)cccc12)C1CCCCN1 (stereo not given): N
CC[C@H]1OC(=O)[C@H](C)[C@@H](O[C@H]2C[C@@](C)(OC)[C@@H](O)[C@H](C)O2)[C@H](C)[C@@H](O[C@@H]2O[C@H](C)C[C@H](N(C)C)[C@H]2O)[C@](C)(O)C[C@H](C)C(=NOCOCCOC)[C@H](C)[C@@H](O)[C@]1(C)O: N
O=c1[nH]c(=O)n([C@H]2C[C@@H](O)[C@@H](CO)O2)cc1C(F)(F)F: N
c1cc(OCCN2CCCCC2)cc(-c2n[nH]c3ccc(-c4ncn[nH]4)cc23)c1: N
